Taken from the RNAGym collection of RNA variant scans (doi:10.1021/acssynbio.7b00057).

B1: Pistol ribozyme (parent)
chain: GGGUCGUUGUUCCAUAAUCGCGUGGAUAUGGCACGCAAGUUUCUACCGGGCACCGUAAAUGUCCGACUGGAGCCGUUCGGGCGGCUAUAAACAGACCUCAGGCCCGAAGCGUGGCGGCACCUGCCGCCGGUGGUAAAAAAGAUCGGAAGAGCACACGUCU

Variants of: B1
Procedure details: aptazyme ON/OFF ratio, guanine; higher = stronger switching; co-transcriptional cleavage with and without guanine
Attribute measured: aptazyme ON/OFF ratio
API note: the answer field is a bare number with no unit suffix.

Here are 8 variants together with their reported answers.
> print(dat)
                     mutant.id  numeric.readout
1   U7A U8C G9A U10G U11C C12U             1.06
2  U7G U8C U10C U11G C12U C13G             1.16
3                U7C U10A C13U             1.04
4           G9A U10A U11A C13A             1.11
5            U8C G9C U10C U11C            0.964
6       U8G G9A U10G U11C C12U             1.02
7        U7G U8A G9U U10C C13A             1.11
8      U7A U10G U11A C12G C13A             1.08

Query block: Recorded aptazyme ON/OFF ratio of U7A U8A G9A U10G U11C C12G , please.
Result block: 1.13
